Value source: patent US12281125B2

pKd: −log10 of the molar value.
A short record of pKd observed with FKBP52 (Homo sapiens) follows.
Sequence (Q02790 whole entry): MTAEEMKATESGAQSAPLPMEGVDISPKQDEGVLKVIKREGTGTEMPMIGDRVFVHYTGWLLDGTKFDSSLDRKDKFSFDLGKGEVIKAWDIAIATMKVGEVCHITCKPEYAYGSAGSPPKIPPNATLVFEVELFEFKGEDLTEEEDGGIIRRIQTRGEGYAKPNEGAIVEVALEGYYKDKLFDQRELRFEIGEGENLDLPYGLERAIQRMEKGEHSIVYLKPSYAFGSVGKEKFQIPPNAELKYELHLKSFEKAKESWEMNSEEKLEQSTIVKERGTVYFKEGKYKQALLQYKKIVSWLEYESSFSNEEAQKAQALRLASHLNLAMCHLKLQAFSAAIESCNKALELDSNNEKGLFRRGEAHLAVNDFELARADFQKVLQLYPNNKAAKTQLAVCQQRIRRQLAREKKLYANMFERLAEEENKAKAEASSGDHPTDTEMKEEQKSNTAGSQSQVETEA

| Compound | pKd |
| --- | --- |
| CO[C@@H]1C[C@H](C[C@@H](C)[C@@H]2CC[C@H](C)/C=C(\C)[C@@H](O)[C@@H](OC)C(=O)[C@H](C)C[C@H](C)/C=C/C=C/C=C(\C)[C@@H](NS(C)(=O)=O)C[C@@H]3CC[C@@H](C)[C@@](O)(O3)C(=O)C(=O)N3CCCC[C@H]3C(=O)O2)CC[C@H]1OP(C)(C)=O [Compound 24] | 7.05 |
| CO[C@@H]1C[C@H](C[C@@H](C)[C@@H]2CC[C@H](C)/C=C(\C)[C@@H](O)[C@@H](OC)C(=O)[C@H](C)C[C@H](C)/C=C/C=C/C=C(\C)[C@H](NS(C)(=O)=O)C[C@@H]3CC[C@@H](C)[C@@](O)(O3)C(=O)C(=O)N3CCCC[C@H]3C(=O)O2)CC[C@H]1O [Compound 1] | 8.01 |

====

test system: mTORc1 signaling, pS6 (Ser240/244) in MEF TSCl−/− cells; experiment: Cell-based assay for rapalog potency (pS6) in MEF TSCl−/− cells; conditions: Mus musculus, 2 hours treatment, average from multiple assays
pIC50: −log10 of the molar value.
Each entry below carries its recorded pIC50.
Endpoint: pIC50

| Compound | System Name | Qualifier | Value Measured |
| --- | --- | --- | --- |
| CO[C@@H]1C[C@H](C[C@@H](C)[C@@H]2CC[C@H](C)/C=C(\C)[C@@H](O)[C@@H](OC)C(=O)[C@H](C)C[C@H](C)/C=C/C=C/C=C(\C)[C@H](NO)C[C@@H]3CC[C@@H](C)[C@@](O)(O3)C(=O)C(=O)N3CCCC[C@H]3C(=O)O2)CC[C@H]1O [Compound 36] | mTORc1 signaling, pS6 (Ser240/244) in MEF TSCl−/− cells | = | 8.80 |
| CO[C@@H]1C[C@H](C[C@@H](C)[C@@H]2CC[C@H](C)/C=C(\C)[C@@H](O)[C@@H](OC)C(=O)[C@H](C)C[C@H](C)/C=C/C=C/C=C(\C)[C@H](NCCS(=O)(=O)O)C[C@@H]3CC[C@@H](C)[C@@](O)(O3)C(=O)C(=O)N3CCCC[C@H]3C(=O)O2)CC[C@H]1O [Compound 39] | mTORc1 signaling, pS6 (Ser240/244) in MEF TSCl−/− cells | < | 6.30 |

====

assay: Pharmacokinetic profile in rats; assay type: in vivo; settings: male, Sprague-Dawley, blood, iv; rat, i.v. 1 mg/kg; read-out: iv. terminal half-life (converted)

| Compound | half-life / h |
| --- | --- |
| CO[C@@H]1C[C@H](C[C@@H](C)[C@@H]2CC[C@H](C)/C=C(\C)[C@@H](O)[C@@H](OC)C(=O)[C@H](C)C[C@H](C)/C=C/C=C/C=C(\C)[C@@H](NS(C)(=O)=O)C[C@@H]3CC[C@@H](C)[C@@](O)(O3)C(=O)C(=O)N3CCCC[C@H]3C(=O)O2)CC[C@H]1O [Compound 2] | 19 |

====

tested on: mTORc1 signaling, pS6 (Ser240/244) in MEF TSCl−/− cells; test: Cell-based assay for rapalog potency (pS6) in MEF TSCl−/− cells; conditions: Mus musculus, 2 hours treatment, average from multiple assays
pIC50: −log10 of the molar value.
Endpoint: pIC50

| Smiles Structure | System Name | Endpoint | Qualifier | Value Measured |
| --- | --- | --- | --- | --- |
| CO[C@@H]1C[C@H](C[C@@H](C)[C@@H]2CC[C@H](C)/C=C(\C)[C@@H](O)[C@@H](OC)C(=O)[C@H](C)C[C@H](C)/C=C/C=C/C=C(\C)[C@H](NS(=O)(=O)CCCCl)C[C@@H]3CC[C@@H](C)[C@@](O)(O3)C(=O)C(=O)N3CCCC[C@H]3C(=O)O2)CC[C@H]1O | mTORc1 signaling, pS6 (Ser240/244) in MEF TSCl−/− cells | pIC50 | = | 8.18 |
| CO[C@@H]1C[C@H](C[C@@H](C)[C@@H]2CC[C@H](C)/C=C(\C)[C@@H](O)[C@@H](OC)C(=O)[C@H](C)C[C@H](C)/C=C/C=C/C=C(\C)[C@H](NS(=O)(=O)C3CCCC3)C[C@@H]3CC[C@@H](C)[C@@](O)(O3)C(=O)C(=O)N3CCCC[C@H]3C(=O)O2)CC[C@H]1O | mTORc1 signaling, pS6 (Ser240/244) in MEF TSCl−/− cells | pIC50 | = | 7.30 |
| CO[C@@H]1C[C@H](C[C@@H](C)[C@@H]2CC[C@H](C)/C=C(\C)[C@@H](O)[C@@H](OC)C(=O)[C@H](C)C[C@H](C)/C=C/C=C/C=C(\C)[C@@H](N(C)S(C)(=O)=O)C[C@@H]3CC[C@@H](C)[C@@](O)(O3)C(=O)C(=O)N3CCCC[C@H]3C(=O)O2)CC[C@H]1OP(C)(C)=O | mTORc1 signaling, pS6 (Ser240/244) in MEF TSCl−/− cells | pIC50 | = | 8.72 |
| CO[C@@H]1C[C@H](C[C@@H](C)[C@@H]2CC[C@H](C)/C=C(\C)[C@@H](O)[C@@H](OC)C(=O)[C@H](C)C[C@H](C)/C=C/C=C/C=C(\C)[C@@H](NS(C)(=O)=O)C[C@@H]3CC[C@@H](C)[C@@](O)(O3)C(=O)C(=O)N3CCCC[C@H]3C(=O)O2)CC[C@H]1OCCO | mTORc1 signaling, pS6 (Ser240/244) in MEF TSCl−/− cells | pIC50 | = | 10.07 |
| CO[C@@H]1C[C@H](C[C@@H](C)[C@@H]2CC[C@H](C)/C=C(\C)[C@@H](O)[C@@H](OC)C(=O)[C@H](C)C[C@H](C)/C=C/C=C/C=C(\C)[C@@H](NS(=O)(=O)C(C)C)C[C@@H]3CC[C@@H](C)[C@@](O)(O3)C(=O)C(=O)N3CCCC[C@H]3C(=O)O2)CC[C@H]1O | mTORc1 signaling, pS6 (Ser240/244) in MEF TSCl−/− cells | pIC50 | = | 8.62 |
| CCS(=O)(=O)N[C@@H]1C[C@@H]2CC[C@@H](C)[C@@](O)(O2)C(=O)C(=O)N2CCCC[C@H]2C(=O)O[C@H]([C@H](C)C[C@@H]2CC[C@@H](O)[C@H](OC)C2)CC[C@H](C)/C=C(\C)[C@@H](O)[C@@H](OC)C(=O)[C@H](C)C[C@H](C)/C=C/C=C/C=C/1C | mTORc1 signaling, pS6 (Ser240/244) in MEF TSCl−/− cells | pIC50 | = | 8.92 |
| CO[C@@H]1C[C@H](C[C@@H](C)[C@@H]2CC[C@H](C)/C=C(\C)[C@@H](O)[C@@H](OC)C(=O)[C@H](C)C[C@H](C)/C=C/C=C/C=C(\C)[C@@H](NCCS(=O)(=O)O)C[C@@H]3CC[C@@H](C)[C@@](O)(O3)C(=O)C(=O)N3CCCC[C@H]3C(=O)O2)CC[C@H]1O | mTORc1 signaling, pS6 (Ser240/244) in MEF TSCl−/− cells | pIC50 | < | 6.30 |
